assay: non-covalent RecA intein splicing inhibitors, dose response, biochemical, cell-free, fluorescence, secondary screen (AID 449750)
Active and inactive are the calls of the source. The rule behind the calls is not given here.
Hello, when you answer, please use one of the following outcomes: true (1) (active), false (0) (inactive)

COC(=O)c1ccc(NC(=O)c2nc(S(=O)(=O)Cc3cccc(C)c3)ncc2Cl)cc1 = true (1)
CC(=O)NCCn1c(SCc2ccccc2C)nc2ccccc2c1=O = false (0)
C/C(=N\NC(=O)c1ccncc1)c1cc2ccccc2oc1=O = false (0)
COc1ccc(C2C(O)C(c3c[nH]c4ccccc34)=NN2C(=O)CCl)cc1 (stereo unspecified) = true (1)
O=S(=O)(Nc1ccc(-n2cnnn2)cc1)c1ccc(F)c(F)c1F = false (0)
O=C1N=NC2=C1c1c3ccccc3c(O)n1CC2 = true (1)

Query: recorded result category for CNC(=O)c1nnsc1S(=O)c1ccc(Cl)cc1 (stereo unspecified) in this test false (0)

Query: recorded result category for CC(Oc1ccc(F)cc1)C(=O)Oc1ccc(N(C)S(=O)(=O)c2ccccc2)cc1 (stereo unspecified) in this test false (0)

Query: recorded result category for Oc1ccc(Nc2nc(-c3ccc4ccccc4c3)cs2)cc1 in this test false (0)

Query: recorded result category for CCS(=O)(=O)c1ncc(Cl)c(C(=O)Nc2ccc(C)cc2)n1 in this test false (0)

Query: recorded result category for CC(C)NC(=S)NC(c1ccccc1)(c1ccccc1)c1ccccc1 in this test true (1)
